Taken from the domain aggregation screens of Martell et al. (2025).

measurement-description: soluble fraction after stress (log2 fold change); higher = more stays soluble; pooled small domains, quantitative proteomics
condition-label: stress: pH 4
recorded-metric: soluble fraction (log2)
The answer should be a number; do not append a unit.

Consider the worked cases shown below.
• HMVNKQERTYTILRDRIHSGSFAPLERLNIDALARELGVSPIPVREALRRLEAEGWVRFTPNVGAVVSP = 0.308
• HMTGGMVTYIIEKGEGFFSLERKFGLSENELIKLNPSLKSGLKSEMQINIPKENYDRYVASS = 0.206
• HMEYMKQRLYDIIELFKRSFSPSFSEEEKKKLENVLQDDFLRKAYEQLSDEVFIEEKFREFDGY = -2.28
• HMKEFEINSQWKPSLEVYDILSVKGGISRNFIEDSIPEFVLYWRGRGDKSNTWDSKFVQHVKRQWNFYSGL = -2.41
• HMLPPHMEVRAIMILDKRPMALMNIEGEGDGLIVSPGYRFGDGRGRVVSITQTKVVVLWAGTSMEL = -0.383
• HMGKQPLYEQLVDLLRDRIENDMETGELLPSERKLAHHFGLSRTTVRLAMDRLETLGLITRVHGKDTFVAE = -0.12
• HMTTQTGTVKWFNEGKGFGFIAPDDGGKDLFAHFKEIQGTGFKTLAENQRVEFEVTQGQKGPQASKI = -0.469

Exercise: Item HMDPEIADAVNTIKKYLESHYSEVITRKKIEELVHLNQDHINREFKKQTGYTLMEYVQHYRILMAKKMLRV has what recorded soluble fraction (log2)?
Solution: -0.1
